All values here come from patent US20250026815A1.

target: RSV-F protein of RSV A Long virus (as carried by the live virus in the neutralisation assay) (human respiratory syncytial virus, …, UniProt P12568 26-574); test: cell-based or functional assay
Reported metric: Absolute IC50, neutralizing RSV A Long (HEp-2 cells, indirect ELISA) (µg/mL)
Please respond with the number in µg/mL and leave the unit unwritten.

Field: example entries. Status: answers known.
1) R3-16A10QH (antibody, human IgG1, kappa, V domains shown, also called chimeric antibody of R3-16A10) VH: EVKLEESGPELVKPGASVKISCKTSGYAFSDSWMNWVKQRPGQGLEWIGRIYPGDGDTQYNGKVKGKATLTADKSSSTAYMQVSSLTSVDSAVYFCAREGGMITSSGYYHALDYWGQGTSVTVSS VL: DIVMTQSPASLAVSLGQRTTISCRASESVDSYGNSFLNWYQQKPGQPPKVLIYLASNLESGVPARFSGSGSRTDFTLIIDPVEADDAATYYCQQNNEDPTFGGGTKLEIKR: 0.0258
2) R3-38B6QH (antibody, human IgG1, kappa, V domains shown, also called chimeric antibody of R3-38B6) VH: QVQLEESGPELVKPGASVKISCKASGYAFSSSWMNWVKQRPGQGLEWIGRIYPGDGDTQYHGKVKGKATLTADKSSSTAYMQVSSLTSVDSAVYFCAREGGMITSNGYYHALDYWGQGTSVTVSS VL: DIVMTQTTASLAVSQGQRATISCSASESVDSYGNSFMNWYQQKPGQPPKVLIYLASNLESGVPARFSGSGSRTDFTLTIDPVEADDAATYYCQQNNEDPTFGGGTKLEIKR: 0.0733

Now examine the next entry.
Request: Could you share which Absolute IC50, neutralizing RSV A Long (HEp-2 cells, indirect ELISA) value was measured for R1-11C3QH (antibody, human IgG1, kappa, V domains shown, also called chimeric antibody of R1-11C3) VH: EVQLEESGAELVRSGASVKLSCTASGFNIKDYYMHWVKQRPEQGLEWIGWIDPENGDTEYAPKFQGKATLTADTSSNTAYLQLSTLTSEDNAVYYCNAAYYGDYVEDMDYWGQGTSVTVSS VL: DIVMTQTPLSLSVSLGDQASISCRSSQSIVHSDGNTFLEWYLQKPGQSPKLLIYKVSNRFSGVPDRFSGSGSGTDFTLKISRVEAEDLGVYYCFQASHLPRTFGGGTKLEIKR ?
Result: 0.316
